- ASSAY SYSTEM: HIV-1 Tat (Human immunodeficiency virus 1, UniProt P04608 P04608:1-86)
- ASSAY NOTES: filter; D1/2 420 nM in table (290 nM in text); no complex in EMSA
- CONDITION PARAMETERS: stem-loop without bulge
RESULT TYPE: Kd

- BINDER: "TAR delta U (bulge) (ssRNA) RNA: GGGUCUCUCUGGUUAGACCAGAGAGCCUGGGAGCUCUCUGGCUAACUAGGGAACCC"
  DATA VALUE: "> 70 nM"
